experimental-target: Short transient receptor potential channel 4 (Mus musculus)
assay-info: calcium flux activators in TRPC4/5HT1a cells, counter-screen for TRPC4 activator project, cell-based, second counter screen, HEK293 TRPC4/5HT1a, Fluo-4 (AID 434977)
test-context: Fluo-4 calcium flux, at 10 µM
Active and inactive are the calls of the source.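 The calls were made as follows: active = calcium signal rise above buffer-control mean plus 5 SD in both duplicates, and also a hit in the primary screen; inactive = the rest.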
Outcome (select one): active, inactive

Before answering, review these 5 worked examples.
INSERT INTO measurements (molecule, assigned_label) VALUES
  ('Cc1ccc(CNC(C)c2ccccc2)cc1 (configuration not stated)', 'inactive'),
  ('CN(CCNS(=O)(=O)c1ccc2c(c1)oc(=O)n2C)Cc1ccccc1', 'inactive'),
  ('Clc1ccc(C[n+]2cc(-c3ccccc3)n3c2CCC3)cc1Cl', 'inactive'),
  ('Cc1ccc(CN(C(=O)c2cc(=O)c3cc(Cl)c(C)cc3o2)C2CCS(=O)(=O)C2)cc1 (configuration not stated)', 'inactive'),
  ('CCN1/C(=C\c2ccc3cc(C)ccc3[n+]2CC)Sc2cc(C)c(C)cc21', 'active');

Q: Fill in: this test's call for "CC(C)(C)NCc1cc(Cl)ccc1OCc1cccs1" is ___
Result: inactive

Q: Fill in: this test's call for "O=S(=O)(NCCc1csc(-c2ccccc2)n1)c1cccnc1" is ___
Result: active

Q: Fill in: this test's call for CC1CCCN(C2=C(NS(=O)(=O)c3ccc(Br)cc3)C(=O)c3ccccc3C2=O)C1 (configuration not stated) is ___
Result: inactive

Q: Fill in: this test's call for "Cn1c(-c2ccccc2)cnc1NCc1ccc(F)cc1" is ___
Result: inactive

Q: Fill in: this test's call for "Cc1ccc(Cn2c(=N)c(C(=O)NCCN3CCOCC3)cc3c(=O)n4ccccc4nc32)cc1" is ___
Result: inactive

###

experimental-target: Short transient receptor potential channel 4 (Mus musculus) (UniProt Q9QUQ5)
Sequence (Q9QUQ5 whole entry, looked up): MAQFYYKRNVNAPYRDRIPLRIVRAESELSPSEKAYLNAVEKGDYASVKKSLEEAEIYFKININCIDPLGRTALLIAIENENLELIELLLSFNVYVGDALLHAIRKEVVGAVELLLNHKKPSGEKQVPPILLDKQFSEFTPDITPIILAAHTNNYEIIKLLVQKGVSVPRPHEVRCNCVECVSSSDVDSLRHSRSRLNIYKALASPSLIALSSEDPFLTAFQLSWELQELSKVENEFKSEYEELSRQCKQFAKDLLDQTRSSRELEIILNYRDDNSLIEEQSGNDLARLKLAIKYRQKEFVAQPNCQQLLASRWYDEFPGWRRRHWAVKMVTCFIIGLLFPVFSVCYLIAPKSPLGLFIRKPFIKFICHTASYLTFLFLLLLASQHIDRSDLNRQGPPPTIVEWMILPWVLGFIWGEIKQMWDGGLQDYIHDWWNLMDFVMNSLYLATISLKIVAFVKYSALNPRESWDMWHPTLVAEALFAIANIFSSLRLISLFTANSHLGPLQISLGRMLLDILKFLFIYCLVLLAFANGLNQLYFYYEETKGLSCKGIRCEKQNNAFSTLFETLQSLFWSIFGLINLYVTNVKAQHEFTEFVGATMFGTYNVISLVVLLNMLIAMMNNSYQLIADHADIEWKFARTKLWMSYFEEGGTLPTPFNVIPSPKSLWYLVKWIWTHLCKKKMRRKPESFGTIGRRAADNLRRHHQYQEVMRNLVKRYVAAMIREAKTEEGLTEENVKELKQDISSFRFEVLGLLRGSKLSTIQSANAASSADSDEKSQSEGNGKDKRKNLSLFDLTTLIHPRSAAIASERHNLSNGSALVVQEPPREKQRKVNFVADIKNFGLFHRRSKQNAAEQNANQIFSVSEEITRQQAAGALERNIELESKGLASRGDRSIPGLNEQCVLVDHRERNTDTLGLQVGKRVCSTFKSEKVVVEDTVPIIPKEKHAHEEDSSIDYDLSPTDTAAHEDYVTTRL
assay-info: blockers of DAMGO-evoked TRPC4 calcium flux – cell-based, second round, Fluo4, HEK293 TRPC4beta/mu-opioid, 1 µM, confirmation (AID 2637)
test-context: at 1 µM
The source made the active and inactive calls.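 Rule for the calls: active = calcium signal ratio cut to more than 3 SD under the fully stimulated control mean yet still positive, in both repeats and the primary screen; inactive = the rest.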
Outcome (select one): 1 (yes) = active, 0 (no) = inactive

INSERT INTO results (compound, assigned_label) VALUES
  ('O=[N+]([O-])c1ccc(CN2CCN(c3nc4ccccc4s3)CC2)cc1', '0 (no)'),
  ('Cc1ccc(C)c2c(N)c3c(nc12)CCCCC3 (tested in a mixture with another compound)', '1 (yes)'),
  ('CC(C)(C)Cc1nc2ccccc2n1CCc1ccccc1', '1 (yes)'),
  ('CCOc1cc(N(CC)CC)ccc1/C=C(/C#N)c1nc2ccccc2[nH]1', '0 (no)'),
  ('COc1ccc(C(CNC(=O)Cc2cccs2)N(C)C)cc1 (configuration not stated)', '0 (no)'),
  ('NC(N)=NN=C1CCC(c2ccccc2)CC1 (configuration not stated)', '0 (no)');

Q: Fill in: this test's call for CCOC(=O)C1C(=O)C=C(c2ccc(C)cc2)CC1c1cccc([N+](=O)[O-])c1 (configuration not stated) is ___
Result: 0 (no)

Q: Fill in: this test's call for "CCOC(=O)C(CCCCCOc1ccc([N+](=O)[O-])cc1)C(=O)OCC" is ___
Result: 0 (no)

Q: Fill in: this test's call for "Clc1ccc2nc(N3CCNCC3)nc(-c3ccccc3)c2c1" is ___
Result: 0 (no)

Cited source for all entries: PubChem BioAssay
